# experimental target: MshC (Mycobacterium tuberculosis)
# Assay type: biochemical, M. tuberculosis
measurement kind: relative spec. act.

CC(=O)N[C@@H](CS)C(=O)O ... ≦0.24
N[C@@H](CCS)C(=O)O ... ≦0.2
N[C@H](CS)C(=O)O ... ≦0.7
N[C@H]1C(O)O[C@H](CO)[C@@H](O)[C@@H]1O (some centres unmarked) ... 1.2

Form field, relative spec. act. with MshC (Mycobacterium tuberculosis), item NCCS : ≦0.16

###

# experimental target: MshC (Mycobacterium tuberculosis)
# Sequence (P9WJM9 1-414): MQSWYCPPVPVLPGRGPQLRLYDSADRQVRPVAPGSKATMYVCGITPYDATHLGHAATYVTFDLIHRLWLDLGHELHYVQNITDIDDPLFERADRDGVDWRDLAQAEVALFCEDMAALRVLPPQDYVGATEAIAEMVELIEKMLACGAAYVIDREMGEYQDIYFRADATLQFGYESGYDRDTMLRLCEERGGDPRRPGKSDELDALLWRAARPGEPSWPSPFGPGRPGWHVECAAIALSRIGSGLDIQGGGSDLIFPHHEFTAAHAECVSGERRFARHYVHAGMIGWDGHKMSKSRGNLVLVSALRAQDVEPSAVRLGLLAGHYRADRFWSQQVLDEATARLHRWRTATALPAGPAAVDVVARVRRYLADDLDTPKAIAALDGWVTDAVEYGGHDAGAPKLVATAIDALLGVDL
# procedure details: biochemical
# Format: biochemical, M. tuberculosis
# condition context: IC50
pIC50: −log10 of the molar value.
measurement kind: pIC50

Hi there! I need pIC50 for each item below, if you can.
1. CN(CCCNC(=O)c1ccc2c(c1)N(Cc1cccc(Cl)c1)C(=O)c1ccccc1S2(=O)=O)c1ccccc1
2. O=C(NCCN1CCN(Cc2ccccc2)CC1)c1ccc2c(c1)N(Cc1cccc(Cl)c1)C(=O)c1ccccc1S2(=O)=O
3. CCN(CC)CCCNC(=O)c1ccc2c(c1)N(Cc1cc(C)ccc1C)C(=O)c1ccccc1[S+]2[O-] (stereo not drawn)
4. Cc1ccc(C)c(CN2C(=O)c3ccccc3[S+]([O-])c3ccc(C(=O)NCCCN(C)C4CCCCC4)cc32)c1 (stereo not drawn)

Solution:
1: < 2.52; 2: < 2.52; 3: < 2.52; 4: ~2.52

Please give pIC50 for each item listed below.
1. CCCCN(CCCNC(=O)c1ccc2c(c1)N(Cc1cccc(Cl)c1)C(=O)c1ccccc1[S+]2[O-])Cc1ccccc1 (stereo not drawn)
2. O=C(NCCCN1CCCC1)c1ccc2c(c1)N(Cc1ccc(Cl)cc1)C(=O)c1ccccc1S2(=O)=O
3. CCC1CCCCN1CCCNC(=O)c1ccc2c(c1)N(Cc1ccccc1F)C(=O)c1ccccc1[S+]2[O-] (stereo not drawn)
4. Cc1ccc(C)c(CN2C(=O)c3ccccc3S(=O)(=O)c3ccc(C(=O)NCCCSC4CCCCC4)cc32)c1
5. O=C(NCCN1CCCC1)c1ccc2c(c1)N(Cc1ccccc1F)C(=O)c1ccccc1S2(=O)=O
6. O=C(NCCN1CCN(Cc2ccccc2)CC1)c1ccc2c(c1)N(Cc1ccccc1F)C(=O)c1ccccc1S2(=O)=O
7. CC1CCCN(CCCNC(=O)c2ccc3c(c2)N(Cc2cccc(Cl)c2)C(=O)c2ccccc2[S+]3[O-])C1 (stereo not drawn)

Solution:
≤ 2.52
3.60
< 2.52
< 2.52
4.00
< 2.52
3.82

Hey, just so you know, these numbers are from patent US20100022509A1.
